These measurements were taken from ChEMBL document CHEMBL2413073.

System: PC-3
testProtocol: Cytotoxicity against human PC3 cells after 72 hrs by MTT assay
Assay type: functional, cell-based
testSettings: PC-3, 72 h
We begin with a simple list: items and their reported IC50.
Answer with the figure and its unit, nothing else.

Here are 2 molecules together with their reported answers.
compoundsmiles=O=c1[nH]cc(F)c(=O)[nH]1 experimentalresult="24.8 µM"
compoundsmiles=C[C@]12CC[C@H](O)CC1=CC[C@@H]1[C@@H]2CC[C@]2(C)C(=C(/C#N)C(N)=O)/C(=C/c3ccccc3F)C[C@@H]12 experimentalresult="13.3 µM"

Can you look up the measured IC50 of COc1cccc(/C=C2\C[C@H]3[C@@H]4CC=C5C[C@@H](OC(C)=O)CC[C@]5(C)[C@H]4CC[C@]3(C)\C2=C(\C#N)C(N)=O)c1 for me?
13 µM

Data request, read-out IC50, for COc1cccc(/C=C2\C[C@H]3[C@@H]4CC=C5C[C@@H](O)CC[C@]5(C)[C@H]4CC[C@]3(C)\C2=C(\C#N)C(N)=O)c1
14 µM

Which IC50 is reported for this molecule? CC(=O)O[C@H]1CC[C@@]2(C)C(=CC[C@@H]3[C@@H]2CC[C@]2(C)C(=C(/C#N)C(N)=O)/C(=C/c4ccccc4Cl)C[C@@H]32)C1
24.3 µM

====

System: PC-3
testProtocol: Cytotoxicity against human PC3 cells after 72 hrs by MTT assay
Format: functional, cell-based
testSettings: PC-3, 72 h
Known pIC50 of a selection of compounds
Keep it numeric: pIC50 is minus log10 of the concentration in mol/L.

Known pIC50 results, listed for orientation:
compoundsmiles=C[C@]12CC[C@H](O)CC1=CC[C@@H]1[C@@H]2CC[C@]2(C)C(=C(/C#N)C(N)=O)/C(=C/c3ccccc3Cl)C[C@@H]12 targetentity=PC-3 propertymeasured=pIC50 experimentalresult=4.77
compoundsmiles=C[C@]12CC[C@H](O)CC1=CC[C@@H]1[C@@H]2CC[C@]2(C)C(=C(/C#N)C(N)=O)/C(=C/c3ccc(Cl)c(Cl)c3)C[C@@H]12 targetentity=PC-3 propertymeasured=pIC50 experimentalresult=5.05

Turning to the following compound.
Report pIC50 for CC(=O)O[C@H]1CC[C@@]2(C)C(=CC[C@@H]3[C@@H]2CC[C@]2(C)C(=C(/C#N)C(N)=O)/C(=C/c4ccc(F)cc4)C[C@@H]32)C1 please.
5.04

====

System: PC-3
testProtocol: Cytotoxicity against human PC3 cells after 72 hrs by MTT assay
Type: functional, cell-based
testSettings: PC-3, 72 h
propertyMeasured: IC50

Please review the following examples before continuing.
compoundsmiles=CC(=O)O[C@H]1CC[C@@]2(C)C(=CC[C@@H]3[C@@H]2CC[C@]2(C)C(=C(/C#N)C(N)=O)/C(=C/c4ccc(F)c(F)c4)C[C@@H]32)C1 propertymeasured=IC50 experimentalresult="8.48 µM"
compoundsmiles=CC(=O)O[C@H]1CC[C@@]2(C)C(=CC[C@@H]3[C@@H]2CC[C@]2(C)C(=C(/C#N)C(N)=O)/C(=C/c4ccc(Br)cc4)C[C@@H]32)C1 propertymeasured=IC50 experimentalresult="26.8 µM"
compoundsmiles=COc1cc(/C=C2\C[C@H]3[C@@H]4CC=C5C[C@@H](OC(C)=O)CC[C@]5(C)[C@H]4CC[C@]3(C)\C2=C(\C#N)C(N)=O)cc(OC)c1OC propertymeasured=IC50 experimentalresult="11.7 µM"

Give its IC50 value. Item: CC(=O)O[C@H]1CC[C@@]2(C)C(=CC[C@@H]3[C@@H]2CC[C@]2(C)C(=C(/C#N)C(N)=O)/C(=C/c4ccc(C)cc4)C[C@@H]32)C1
22.9 µM

Given CC(=O)O[C@H]1CC[C@@]2(C)C(=CC[C@@H]3[C@@H]2CC[C@]2(C)C(=C(/C#N)C(N)=O)/C(=C/c4cccc(Cl)c4)C[C@@H]32)C1 , state its recorded IC50.
11.3 µM

I'd like to know its IC50. The compound in question is CC(=O)O[C@H]1CC[C@@]2(C)C(=CC[C@@H]3[C@@H]2CC[C@]2(C)C(=C(/C#N)C(N)=O)/C(=C/c4ccc(Cl)cc4Cl)C[C@@H]32)C1
24.3 µM
